Protocol description: Tmax in F344 rat plasma at 5 mg/kg, iv administered as single bolus dose by HPLC method
Type: ADME, organism-based
Set-up: dose 5 mg/kg, route intravenous
Result type: Tmax

molecule="CCCCCOc1ccc(-c2ccc(-c3ccc([14C](=O)N[C@H]4C[C@@H](O)[C@@H](O)NC(=O)[C@@H]5[C@@H](O)[C@@H](C)CN5C(=O)[C@H]([C@@H](C)O)NC(=O)[C@H]([C@H](O)[C@@H](O)c5ccc(O)cc5)NC(=O)[C@@H]5C[C@@H](O)CN5C(=O)[C@H]([C@@H](C)O)NC4=O)cc3)cc2)cc1 [14C-ANIDULAFUNGIN]" result_type=Tmax result="4.98 min"

---

Protocol description: Ratio of AUC (0 to infinity) in F344 rat kidney to AUC (0 to infinity) in F344 rat plasma at 5 mg/kg, iv administered as single bolus dose
Assay type: ADME, organism-based
Design: dose 5 mg/kg, route intravenous
Test context: kidney and plasma
Result type: Kp

smi=CC[C@H](C)C[C@H](C)CCCCCCCCC(=O)N[C@H]1C[C@@H](O)[C@@H](NCCN)NC(=O)[C@@H]2[C@@H](O)CCN2C(=O)[C@H]([C@H](O)CCN)NC(=O)[C@H]([C@H](O)[C@@H](O)c2ccc(O)cc2)NC(=O)[C@@H]2C[C@@H](O)CN2C(=O)[C@H]([C@@H](C)O)NC1=O result_type=Kp result=10.7

---

Protocol description: Tmax in F344 rat lung at 5 mg/kg, iv administered as single bolus dose by HPLC method
Type: ADME, organism-based
Parameters: dose 5 mg/kg, route intravenous
Result type: Tmax (min)

compound="CCCCCOc1ccc(-c2ccc(-c3ccc([14C](=O)N[C@H]4C[C@@H](O)[C@@H](O)NC(=O)[C@@H]5[C@@H](O)[C@@H](C)CN5C(=O)[C@H]([C@@H](C)O)NC(=O)[C@H]([C@H](O)[C@@H](O)c5ccc(O)cc5)NC(=O)[C@@H]5C[C@@H](O)CN5C(=O)[C@H]([C@@H](C)O)NC4=O)cc3)cc2)cc1 [14C-ANIDULAFUNGIN]" numeric_readout=4.98

---

Protocol description: Cmax in F344 rat lung at 5 mg/kg, iv administered as single bolus dose after 5 min by HPLC method
Assay type: ADME, organism-based
Design: dose 5 mg/kg, route intravenous
Result type: Cmax (ng/g)

molecule="CCCCCOc1ccc(-c2ccc(-c3ccc([14C](=O)N[C@H]4C[C@@H](O)[C@@H](O)NC(=O)[C@@H]5[C@@H](O)[C@@H](C)CN5C(=O)[C@H]([C@@H](C)O)NC(=O)[C@H]([C@H](O)[C@@H](O)c5ccc(O)cc5)NC(=O)[C@@H]5C[C@@H](O)CN5C(=O)[C@H]([C@@H](C)O)NC4=O)cc3)cc2)cc1 [14C-ANIDULAFUNGIN]" result_type=Cmax numeric_readout=31100

---

Protocol description: Cmax in F344 rat skin at 5 mg/kg, iv administered as single bolus dose after 30 min by HPLC method
Assay type: ADME, organism-based, Zone of skin
Set-up: dose 5 mg/kg, route intravenous
Result type: Cmax

molecule="CCCCCOc1ccc(-c2ccc(-c3ccc([14C](=O)N[C@H]4C[C@@H](O)[C@@H](O)NC(=O)[C@@H]5[C@@H](O)[C@@H](C)CN5C(=O)[C@H]([C@@H](C)O)NC(=O)[C@H]([C@H](O)[C@@H](O)c5ccc(O)cc5)NC(=O)[C@@H]5C[C@@H](O)CN5C(=O)[C@H]([C@@H](C)O)NC4=O)cc3)cc2)cc1 [14C-ANIDULAFUNGIN]" result_type=Cmax result="4020 ng/g"
